Test system: TK-10
Test: NCI tumour cell line growth inhibition, 48 h
Calls of active or inactive are those of the source. No stated cut-off is given here; in the data, active = GI50 up to about 1.1 µM and inactive = higher. Where a SMILES comes first, the peptide text is derived from it. Bridges are numbered along the chain shown (N, C = ends). The star is where a group is joined. Cbz = O=C(OCc1ccccc1)*
The reply should name one outcome from active, inactive

Solved entries:
CCOC(=O)C1=C(C)NC(=O)NC1c1ccc(OC)cc1OC (configuration not stated) :: inactive
NC(=O)NC(=O)c1cccc(NC(=O)CI)c1 :: active
C/C(=N\NC(=S)NC(C)C)c1nc2cccnc2[nH]1 :: inactive
N#Cc1c(=O)c2cc([N+](=O)[O-])ccc2n2c1[nH]c1ccccc12 :: inactive
O=C1N/C(=N/N=C/c2ccccc2)N/C1=C\c1c[nH]c2ccccc12 :: inactive
CCC1C(C#N)=C(N)OC2=C1C(=O)CC(C)(C)C2 (configuration not stated) :: inactive
[O-][S+](Nc1ccccc1)c1ccc(Cl)cc1 (configuration not stated) :: inactive
Cc1cc(C)n(-c2nc(C)c(CCO)c(=O)[nH]2)n1 :: inactive
CC1=C[C@H]2c3c([nH]c4ccccc34)C(c3c[nH]c4ccccc34)[C@H]2CC1 (some centres not stated) :: inactive
Cc1cn2c(C)csc2c1P(=O)(OC(C)C)OC(C)C :: inactive

Let's switch to this molecule now.
Task: In this assay, the call recorded for COC(=O)C1CCCCNC(=O)CCC(NC(=O)OCc2ccccc2)C(=O)N1 (stereo not drawn) (Cbz-Glu-Lys-OMe; lactam 1-2; configuration not given here) was what?
Result: inactive

###

System: UACC-62
Experiment: NCI tumour cell line growth inhibition, 48 h
Active and inactive are the calls of the source. Cut-off read from the data, not from the text of the source: active = GI50 up to about 1.1 µM and inactive = higher.
Reported GI50 values for a set of compounds

Some solved entries appear below for comparison.
Cc1cc(Cl)cc2c1NC(=O)/C2=N\Nc1ccccc1[N+](=O)[O-] :: > 100 µM (inactive)
O=C(C/C(=N/O)C(F)(F)F)c1cccs1 :: > 100 µM (inactive)
Cc1ccc(C)c(COCCOCn2cc(Br)c(N)nc2=O)c1 :: > 100 µM (inactive)
O=C1/C(=C/c2ccc(O)c(O)c2)CC/C1=C\c1ccc(O)c(O)c1 :: 3.79 µM (inactive)
COc1cc(-c2oc(/C=N/c3ccccc3)c([N+](=O)[O-])c2-c2ccc(O)c(OC)c2)ccc1O :: 17.9 µM (inactive)

Task: Endpoint output: GI50 of `Cc1ccc([Se][Se]c2ccc(C)cc2)cc1` . Value?
Result: 9.4 µM (inactive)

Task: Endpoint output: GI50 of `COC(=O)N1CCc2c(nc(N(C)CCO)[nH]c2=O)C1` . Value?
Result: > 100 µM (inactive)

Task: Endpoint output: GI50 of `O=C1NC(N2CCOCC2)=N/C1=C\c1ccc(O)cc1` . Value?
Result: > 100 µM (inactive)

###

Tested on: SF-295
Assay: NCI tumour cell line growth inhibition, 48 h
Activity calls are given as the source filed them. Rule as the data show it: active = GI50 up to about 1.1 µM and inactive = higher.
reported-metric: GI50

Some solved entries appear below for comparison.
CC(=O)CCCCO :: > 100 µM (inactive)
C=C=C(C(=O)OC)[S+]([O-])c1ccccc1[N+](=O)[O-] (configuration not stated) :: > 100 µM (inactive)

Task: Endpoint output: GI50 of `N=C(N)NNC(=O)CCCCCCCC(=O)NNC(=N)N` . Value?
Result: > 100 µM (inactive)

Task: Endpoint output: GI50 of O=C(O)C1=NN(c2ccc(S(=O)(=O)O)cc2)C2(C1)SCC(=O)N2c1nc2ccccc2s1 (configuration not stated) . Value?
Result: > 100 µM (inactive)

Task: Endpoint output: GI50 of `CCOC(=O)/C(=C\c1cccc(C)c1)C(C)=O` . Value?
Result: 23.4 µM (inactive)

Task: Endpoint output: GI50 of COC1/C=C\OC2(C)Oc3c(C)c(O)c4c(O)c(c(CN(C)C)c(O)c4c3C2=O)NC(=O)/C(C)=C\C=C/C(C)C(O)C(C)C(O)C(C)C(OC(C)=O)C1C (configuration not stated) . Value?
Result: > 100 µM (inactive)

Task: Endpoint output: GI50 of `N#C/C(=C\Nc1ccccn1)C(=O)C1CC1` . Value?
Result: > 100 µM (inactive)

Task: Endpoint output: GI50 of `O[C@@H]1C[C@@H]2N[C@@](O)(C[C@@H]2O)[C@H]1O` . Value?
Result: > 100 µM (inactive)

Task: Endpoint output: GI50 of CC1(C)C(=O)C2(C#N)CCC1C2 (configuration not stated) . Value?
Result: > 100 µM (inactive)

Task: Endpoint output: GI50 of CCOP(=O)(O)C1C(CO)OC(n2ccc(=O)[nH]c2=O)C1O (configuration not stated) . Value?
Result: > 100 µM (inactive)

###

Tested on: SR
Assay: NCI tumour cell line growth inhibition, 48 h
Calls of active or inactive are those of the source. Cut-off read from the data, not from the text of the source: active = GI50 up to about 1.1 µM and inactive = higher.
The reply should name one outcome from active, inactive

NCC(=O)NC(CCCC(NC(=O)CN)P(=O)(O)O)P(=O)(O)O (stereo unspecified) :: inactive

Task: In this assay, the call recorded for `OCCCCn1cc(Cn2ncc3c(SCc4ccccc4)ncnc32)nn1` was what?
Result: inactive

Task: In this assay, the call recorded for COCC12CCC(OC)C34C5CC6(O)C(OC)CC(OC(C)=O)(C5C6OC(=O)c5ccccc5)C(C(OC)C13)C4N(C)C2 (stereo unspecified) was what?
Result: inactive

Task: In this assay, the call recorded for `CCOC(=O)c1cc(/C=C/C(C)=C/C(=O)OC)oc1C` was what?
Result: inactive

Task: In this assay, the call recorded for CCCCC1c2c([nH]c3ccccc23)C2C(=O)N(c3ccc(OC)cc3)C(=O)C2C1CCC (stereo unspecified) was what?
Result: inactive

Task: In this assay, the call recorded for `N/N=C1\C(OC(=O)Nc2ccccc2)=Nc2ccccc21` was what?
Result: inactive

Task: In this assay, the call recorded for `CCC1=CC2CN3Cn4c(c(COCc5c6n(c7ccccc57)CN5CC7C=C(CC)C5C6(C(=O)OC)C7)c5ccccc54)C(C(=O)OC)(C2)C13` was what?
Result: inactive

Task: In this assay, the call recorded for O=C1CC(c2ccco2)C2(C(=O)NC(=O)NC2=O)C(c2ccco2)C1 (stereo unspecified) was what?
Result: inactive

Task: In this assay, the call recorded for `NCCCCCNOCCCN` was what?
Result: inactive

Task: In this assay, the call recorded for NNc1c(C(N)=O)c2c(N)ncnc2n1C1OC(CO)C(O)C1O (stereo unspecified) was what?
Result: active

Task: In this assay, the call recorded for CCOC(=O)C1=C(C)NC(=O)NC1c1ccc(OC)cc1OC (stereo unspecified) was what?
Result: inactive

Task: In this assay, the call recorded for C=C1c2cc3c(cc2CC12Cc1cc4c(cc1C2=O)CCC4)CCC3 (stereo unspecified) was what?
Result: inactive

Task: In this assay, the call recorded for Cc1ccc2c(c1)C=CC(C#N)N2C(=O)Oc1ccccc1 (stereo unspecified) was what?
Result: inactive

Task: In this assay, the call recorded for CCOC1c2nc3ccccc3nc2-c2ccccc2N1C(C)=O (stereo unspecified) was what?
Result: inactive

Task: In this assay, the call recorded for COC1/C=C\OC2(C)Oc3c(C)c(O)c4c(O)c(c(CN(C)C)c(O)c4c3C2=O)NC(=O)/C(C)=C\C=C/C(C)C(O)C(C)C(O)C(C)C(OC(C)=O)C1C (stereo unspecified) was what?
Result: inactive

Task: In this assay, the call recorded for CN/N=C(\C)C(CN1CCCCC1)C(C1=C(O)c2ccccc2OC1)c1ccccc1 (stereo unspecified) was what?
Result: inactive

Task: In this assay, the call recorded for `CCCC(c1cc(C(C)(C)C)c(O)cc1C)c1cc(C(C)(C)C)c(O)cc1C` was what?
Result: inactive

Task: In this assay, the call recorded for `O=C1C(Cl)=C(N2CCN(c3ccccn3)CC2)C(=O)c2ncccc21` was what?
Result: active

Task: In this assay, the call recorded for COc1ccccc1C1c2cc3c(cc2OC(N2CCOCC2)C1C)OCO3 (stereo unspecified) was what?
Result: inactive

Task: In this assay, the call recorded for `O=C1/C(=C/c2ccc(O)c(O)c2)CC/C1=C\c1ccc(O)c(O)c1` was what?
Result: inactive

Task: In this assay, the call recorded for `CCOC(=O)C(=CNC(=S)N/N=C1\C(=O)Nc2ccccc21)C(=O)OCC` was what?
Result: inactive

###

Test system: SK-OV-3
Assay: NCI tumour cell line growth inhibition, 48 h
The source made the active and inactive calls. Cut-off read from the data, not from the text of the source: active = GI50 up to about 1.1 µM and inactive = higher.
The reply should name one outcome from active, inactive

Solved entries:
Cc1cc(C)n(-c2nc(C)c(CCO)c(=O)[nH]2)n1 :: inactive
O=c1cn[nH]c(=S)n1/N=C/c1c[nH]c2ccccc12 :: inactive

Task: In this assay, the call recorded for `CNCCCNc1c2ccccc2nc2cccc([N+](=O)[O-])c12` was what?
Result: active

Task: In this assay, the call recorded for C[C@H](CCc1nc(C#N)c(N)o1)[C@H]1CC[C@H]2[C@@H]3[C@@H](O)CC4C[C@@H](O)CC[C@]4(C)[C@H]3C[C@@H](O)[C@]12C (some centres undefined) was what?
Result: inactive
